Entries and their measured Relative toxisity to quinidine follow.
- Test system: white mice
- testDescription: in vivo
- testConditions: mouse, in vivo, ip, 14400 min

Guide cases for Relative toxisity to quinidine, answers given:
C=CCNC(=S)N(CCC(=O)OCC)N(C)C ... 11,4
CCCC(=O)N(CCC(=O)OC)N(C)C ... 11,2
COC(=O)C(C)CN(C(=O)c1ccccc1)N(C)C (stereo not drawn) ... 11,2
CNC(=S)N(CCC(=O)O)N(C)C ... 11,5
CN(C)N(CCC#N)C(=O)Nc1ccccc1 ... 8,0
CN(C)N(CCC(N)=O)C(=S)Nc1ccccc1 ... 11,2
CN(C)N(CCC(N)=O)C(=O)CCO ... > 19,2
CC(CN(C(=S)Nc1ccccc1)N(C)C)C(N)=O (stereo not drawn) ... 8,6

Switching to the query record.
Ask: // returns reported Relative toxisity to quinidine for input CN(C)N(CCC#N)C(=O)c1ccccc1F
Result: 11,8

----------
- Tested on: white mice
- testDescription: in vivo
- testConditions: mouse, in vivo, ip, 14400 min
Entries and their measured Relative toxisity to quinidine follow.

C=CCNC(=S)N(CCC(=O)OC)N(C)C [I-6] ... 20,5

Ask: // returns reported Relative toxisity to quinidine for input COC(=O)CC(C(=O)OC)N(C(=O)NCCCCCCNC(=O)N(C(CC(=O)OC)C(=O)OC)N(C)C)N(C)C (stereo not drawn) [I-57]
Result: > 19,2

Ask: // returns reported Relative toxisity to quinidine for input CCCCCCCCOC(=O)CCN(C(=S)Nc1ccccc1)N(C)C [I-60]
Result: 15,5

----------
Entries and their measured LD50 at 240 h follow.
- testDescription: in vivo
- testConditions: mouse, in vivo, ip
Number only, in mg/kg; omit the unit.

Guide cases for LD50 at 240 h, answers given:
CNC(=S)N(CCC(N)=O)N(C)C [I-17] ... 2850
COC(=O)N(CCC(N)=O)N(C)C [I-53] ... 1880
CCOC(=O)CCN(C(=O)c1ccccc1F)N(C)C [I-45] ... 1480
CCC(=O)N(CCC#N)N(C)C [I-62] ... 930
C=CCNC(=S)N(CCC#N)N(C)C [I-22] ... 1450
CNC(=S)N(CCC(=O)OC)N(C)C [I-5] ... 3950
C=CCNC(=S)N(CCC(N)=O)N(C)C [I-18] ... 2900
COC(=O)CCN(C(=O)Cc1ccccc1)N(C)C [I-30] ... 1200
C=CC(=O)N(CCC(=O)OC)N(C)C [I-34] ... 980
C=CCNC(=S)N(CCC(=O)OCC)N(C)C [I-9] ... 1780

Ask: // returns reported LD50 at 240 h for input COC(=O)C(C)CN(C(=O)c1ccc(Br)cc1)N(C)C (stereo not shown) [I-41]
Result: 2430

Ask: // returns reported LD50 at 240 h for input CCCCCCCCCCCCCCCCCC(=O)N(CCC(=O)OC)N(C)C [I-28]
Result: 6150

Ask: // returns reported LD50 at 240 h for input CNC(=O)N(C(CC(=O)OC)C(=O)OC)N(C)C (stereo not shown) [I-55]
Result: 2300

Ask: // returns reported LD50 at 240 h for input COC(=O)C(C)CN(C(N)=O)N(C)C (stereo not shown) [I-11]
Result: 1850

Ask: // returns reported LD50 at 240 h for input CNC(=O)N(CCC(N)=O)N(C)C [I-15]
Result: 3600
